Provenance of the data: PubChem BioAssay (Tox21)

assay: qHTS assay to identify small molecule antagonists of the retinoid-related orphan receptor gamma (ROR-gamma) signaling pathway - cell viability counter screen (AID 1159520); details: Tet-on RORgamma CHO cells viability, ATP luminescence, 16 h; series mostly up to 92.4 µM; note: nearly all actives have a fitted effect of over 50% in size
Records with an inconclusive call do not appear. The source made the active and inactive calls. Calls come from the whole dose curve; as a rule, active = well fitted cell-killing curve with a large enough effect in the repeat runs; inconclusive = weak or mixed curves, or effect the other way; inactive = no such curve, though single readings can be large or run the other way.
parameter-measured: outcome

Examples from the recorded data:
compound | parameter-measured | result
CC(COC(=O)c1ccccc1)OC(=O)c1ccccc1 (configuration not stated) | outcome | inactive
CC(C)(C)c1cc(CCC(=O)NCCCCCCNC(=O)CCc2cc(C(C)(C)C)c(O)c(C(C)(C)C)c2)cc(C(C)(C)C)c1O | outcome | inactive
O=C[C@H](O)[C@H](O)[C@H](O)CO | outcome | inactive
c1ccc2c(c1)CCC2 | outcome | inactive
CCC(=O)OCCc1ccccc1 | outcome | inactive

Asked: May I ask what outcome has been recorded for CCN(CC)CCCN(c1ccccc1)C1Cc2ccccc2C1 ?
Given back: inactive

Asked: Query (compound): Cc1ccc(N)cc1O ; field requested: outcome
Given back: inactive

* * *

experiment: qHTS assay to identify small molecule agonists of the farnesoid-X-receptor (FXR) signaling pathway - cell viability counter screen (AID 743218); conditions: FXR-bla HEK293T viability, CellTiter-Glo luminescence, 16 h; series mostly up to 62.6 µM; note: nearly all actives have a fitted effect of over 45% in size
Records with an inconclusive call do not appear. Calls of active or inactive are those of the source. The call rests on the fitted dose curve; in most records, active means well fitted cell-killing curve with a large enough effect in the repeat runs; inconclusive means weak or mixed curves, or effect the other way; inactive means no such curve, though single readings can be large or run the other way.
Valid outcomes are listed here; reply with one: active, inactive

compound | answer-label
c1cc(OCC2CO2)cc(OCC2CO2)c1 (configuration not stated) | inactive
CCc1cccc(C)c1 | inactive
CCOC(=O)[C@@](C)(N)Cc1ccc(O)c(O)c1 | inactive

Asked: Entry CCOC(=O)C1=C(C)NC(C)=C(C(=O)OCC)C1c1ccccc1/C=C/C(=O)OC(C)(C)C : call = ?
Given back: active

Asked: What did the test return for CCCCOC(=O)C(C)CC (configuration not stated) ?
Given back: inactive

Asked: What did this assay record as the result for Oc1c(Br)cc(Br)c2cccnc12 ?
Given back: inactive

Asked: Outcome? CCCCNc1c(C(=O)OCC)c(C)nc2c1cnn2CC
Given back: inactive

Asked: Called result for O[C@@H](c1cc(C(F)(F)F)nc2c(C(F)(F)F)cccc12)[C@H]1CCCCN1
Given back: active

Asked: Hi team, can someone confirm the assay call for [O]=[Zr] ?
Given back: inactive

Asked: In this assay, the call recorded for CCC(=O)OCCc1ccccc1 was what?
Given back: inactive

* * *

experiment: qHTS assay to identify small molecule antagonists of the retinoic acid receptor (RAR) signaling pathway (AID 1159552; note: nearly all actives have a fitted effect of over 50% in size); details: C3RL4 RARE luciferase reporter, retinol-stimulated, 6 h; series mostly up to 92.4 µM
Results filed as inconclusive are left out. Active and inactive are the calls of the source. Calls follow the shape of the dose curve; as a rule, active = well fitted inhibition curve with a large enough effect in the repeat runs; inconclusive = weak or mixed curves, or effect the other way; inactive = no such curve, though single readings can be large or run the other way.
Valid outcomes are listed here; reply with one: active, inactive

Sample answers from the record:
molecule | answer-label
CC1CNCC(C)O1 (configuration not stated) | inactive
CO[C@H]1C=CO[C@@]2(C)Oc3c(C)c(O)c4c(O)c(cc(O)c4c3C2=O)NC(=O)/C(C)=C\C=C/[C@H](C)[C@H](O)[C@@H](C)[C@@H](O)[C@@H](C)[C@H](OC(C)=O)[C@@H]1C | inactive
O=C1OC(OC(=O)c2cccnc2Nc2cccc(C(F)(F)F)c2)c2ccccc21 (configuration not stated) | inactive
C[Si](C)(C)Cl | inactive
CCCCCCCCCCc1ccccc1 | inactive

Moving on to another molecule below.
Asked: Per the records of this test, what outcome belongs to CCC(C)c1ccccc1 (configuration not stated) ?
Given back: inactive
